These entries and their values trace back to paper PMC7999658.

- PROTOCOL DESCRIPTION: in vivo
- EXPERIMENTAL CONDITIONS: male, FVB, mouse, plasma, iv, 5 mg/kg
MEASUREMENT NAME: clearance

compound="CC(=O)O[C@H]1C(=O)[C@@]2(C)[C@H]([C@H](OC(=O)c3ccccc3)[C@]3(O)C[C@H](OC(=O)[C@H](O)[C@@H](NC(=O)c4ccccc4)c4ccccc4)C(C)=C1C3(C)C)[C@]1(OC(C)=O)CO[C@@H]1C[C@@H]2O [paclitaxel]" result="42 mL/min/kg"

* * *

Reported IC50 values for a set of molecules
- TARGET ENTITY: P-gp (Homo sapiens, UniProt P08183)
- Construct: host or cells: Caco-2
- Sequence (P08183 whole entry): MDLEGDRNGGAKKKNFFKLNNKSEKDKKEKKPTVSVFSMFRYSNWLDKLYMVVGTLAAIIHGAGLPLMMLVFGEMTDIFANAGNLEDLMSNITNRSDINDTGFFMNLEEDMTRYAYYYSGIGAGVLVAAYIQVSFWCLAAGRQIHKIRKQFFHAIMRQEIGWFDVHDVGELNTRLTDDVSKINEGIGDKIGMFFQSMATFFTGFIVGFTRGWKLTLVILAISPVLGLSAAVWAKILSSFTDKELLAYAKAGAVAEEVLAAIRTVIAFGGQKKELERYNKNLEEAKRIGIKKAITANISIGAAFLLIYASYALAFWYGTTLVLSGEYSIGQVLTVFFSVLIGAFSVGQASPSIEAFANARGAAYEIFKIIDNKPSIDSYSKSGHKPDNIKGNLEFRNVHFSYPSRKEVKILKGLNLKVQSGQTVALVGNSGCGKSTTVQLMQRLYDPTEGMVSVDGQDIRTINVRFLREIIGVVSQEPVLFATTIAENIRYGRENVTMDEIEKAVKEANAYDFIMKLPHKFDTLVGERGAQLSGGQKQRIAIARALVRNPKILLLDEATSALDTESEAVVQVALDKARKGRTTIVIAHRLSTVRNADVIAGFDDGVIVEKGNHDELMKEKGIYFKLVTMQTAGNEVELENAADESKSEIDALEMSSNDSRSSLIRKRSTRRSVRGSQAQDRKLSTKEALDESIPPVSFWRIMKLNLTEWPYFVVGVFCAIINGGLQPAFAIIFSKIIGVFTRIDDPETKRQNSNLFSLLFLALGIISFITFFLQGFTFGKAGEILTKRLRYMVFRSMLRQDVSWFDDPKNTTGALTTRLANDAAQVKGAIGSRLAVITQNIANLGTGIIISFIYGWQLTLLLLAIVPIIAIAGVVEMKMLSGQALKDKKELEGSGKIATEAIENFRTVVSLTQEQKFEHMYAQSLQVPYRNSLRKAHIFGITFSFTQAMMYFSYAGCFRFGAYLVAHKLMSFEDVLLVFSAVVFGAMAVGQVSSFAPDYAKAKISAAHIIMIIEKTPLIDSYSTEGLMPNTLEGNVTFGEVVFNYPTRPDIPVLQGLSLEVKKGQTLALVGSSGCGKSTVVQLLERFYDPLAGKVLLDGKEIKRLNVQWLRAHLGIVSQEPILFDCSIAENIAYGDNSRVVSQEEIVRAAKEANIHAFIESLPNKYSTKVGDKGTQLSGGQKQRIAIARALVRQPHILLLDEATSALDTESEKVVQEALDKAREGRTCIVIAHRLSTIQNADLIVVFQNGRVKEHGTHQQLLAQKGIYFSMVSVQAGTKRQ
- PROTOCOL DESCRIPTION: Inhibition of P-gp-mediated transport of paclitaxel across Caco-2 cell monolayers
- Format: cell-based
- EXPERIMENTAL CONDITIONS: Caco-2 monolayers; 50% decrease of efflux ratio; read-out: IC50 on ER of paclitaxel
MEASUREMENT NAME: IC50 (nM)

molecule="COc1cc(C(=O)C(=O)N2CCCC[C@H]2C(=O)OC(CCCc2cccnc2)CCCc2cccnc2)cc(OC)c1OC [VX-710]" measurement_name=IC50 recorded_number=871
molecule="COc1cc2c(cc1OC)CN(CCc1ccc(NC(=O)c3cc(OC)c(OC)cc3NC(=O)c3cnc4ccccc4c3)cc1)CC2 [XR9576]" measurement_name=IC50 recorded_number=46
